Where do these numbers come from? They come from the supplement of paper PMC10567573.

Overview of recorded protein stability index for various variants
B1: ZNF263 (parent)
chain: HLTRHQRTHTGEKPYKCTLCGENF

# Variants of: B1
# EXPERIMENT: protein stability index of a GFP-peptide fusion (GPS, HEK-293T) (PSI 1-6); higher = more stable;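 note: lentivirally expressed fusions sorted by FACS into six bins by GFP to DsRed ratio, PSI derived from sequencing read proportions per bin multiplied by bin number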
# TEST CONTEXT: c terminus: a fixed tail appended

HLTRHQRTHTGEKPYKCTLCGPNF [E22P] :: 2.95

Exercise: Which measured protein stability index value corresponds to HLTRHQRTHTGEKPYKCALCGENF [T18A] ?
Solution: 2.94
